# PROTOCOL: Neutral Red (Toxicity) of the antiviral screening
# CONDITIONS_USED: human, Huh7 cells, CC50, Assay No. 1; Neutral Red (Toxicity), line of the virus yield reduction assay
MEASURED_ATTRIBUTE: CC50

Lab note: measured CC50 of CN(C)CCCn1c(N)nc2ccc3c(c21)CC(CO)O3 (stereo not shown) was > 100 µM

----------
# PROTOCOL: Mouse PK evaluation, plasma, IV
# CONDITIONS_USED: CD-1, mouse, plasma, iv, 3 mg/kg, MRTInf_obs, Mouse 2, 3 mg/kg IV, CD-1 mice
MEASURED_ATTRIBUTE: MRT inf (h)
Numbers only, in h.

Lab note: measured MRT inf of CN(C)CCCn1c(N)nc2ccc3c(c21)CC(CO)O3 (stereo not shown) [DD041] was 2.15
